# method.description: HepG2 cytotoxicity, primary screen, cytotoxicity control for P. falciparum antimalarial project, cell-based, ATP luminescence (AID 2303)
# conditions.used: HepG2 viability, 24-48 h, at 10 µM
Calls of active or inactive are those of the source.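 The calls were made as follows: active = inhibition above 50%; inactive = the rest.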
Parameter call: string, one of active, inactive

CCc1nc2c(N)nc(N)nc2nc1-c1ccc(OC)cc1; inactive
CC(CCCCC(=O)Nc1ccc(C(F)(F)F)cc1)NCC(O)c1cccc(Cl)c1 (stereo not given); active
COc1ccc(-c2ccc(S(=O)(=O)Nc3cc4c(cc3OC(C)C)CCN(C)CC4)cc2)cc1; inactive
Oc1ccc(OCc2ccccn2)cc1; inactive
CCNc1cc(C(=O)N[C@@H](Cc2ccccc2)[C@H](O)CNCCc2ccccc2)cc(N2CCCC2=O)c1; inactive
Cc1ccccc1C1CCN(C2CCC(NC(=O)/C=C/c3cccc(F)c3)CC2)CC1 (stereo not given); inactive

In: Give the logged outcome of this assay for the following compound: O=C1c2cc(I)ccc2SC1c1ccccc1 (stereo not given)
Out: inactive

In: Give the logged outcome of this assay for the following compound: Cn1nc(-c2ccc(CN[C@@H]3CCc4ccc(O)cc43)cc2)c2cnc(NCCCN3CCCC3)nc21
Out: inactive

In: Give the logged outcome of this assay for the following compound: COc1c(C2CCN(CCCCNC(=O)c3noc(-c4ccc(C#N)cc4)n3)CC2)ccc2c1CCCC2
Out: inactive

In: Give the logged outcome of this assay for the following compound: CN(C)CCCSc1ccccc1NC(=O)C=Cc1ccccc1
Out: inactive
